# Assay: Inhibition of yeast alpha-glucosidase using 4-nitrophenyl-alpha-D-glucopyranoside as substrate incubated for 15 mins by spectrophotometric method
# Set-up: species or system Saccharomyces cerevisiae
pIC50: −log10 of the molar value.
Binary classification by pIC50, with 5 as an inclusive lower bound for 1; all other cases are -1.

Solved cases (7 shown):
> print(dat)
                                   molecule  answer.label
1  Cc1cc(/C(O)=C2/C(=O)N(C)c3ccc(Br)cc32)c(C(=O)N2CCCCC2)c(=O)[nH]1             1
2  Cc1cc(C(=O)C2C(=O)Nc3ccc(F)cc32)c(C(=O)N2CCCCC2)c(=O)[nH]1 (stereo not given)             1
3  Cc1cc(C(=O)C2C(=O)Nc3ccccc32)c(C(=O)N2CCCCC2)c(=O)[nH]1 (stereo not given)             1
4  Cc1cc2c(c(=O)[nH]1)C(=O)OC2C1(O)C(=O)N(C)c2ccc(Br)cc21 (stereo not given)            -1
5  Cc1cc2c(c(=O)[nH]1)C(=O)O/C2=C1\C(=O)Nc2ccc(Br)cc21            -1
6  Cc1cc(C(=O)C2C(=O)Nc3ccccc32)c(C(=O)N2CCCC2)c(=O)[nH]1 (stereo not given)             1
7  Cc1cc(C(=O)C2C(=O)Nc3ccc([N+](=O)[O-])cc32)c(C(=O)N2CCCCC2)c(=O)[nH]1 (stereo not given)             1

# evaluate next
Decide: pIC50 of "Cc1cc2c(c(=O)[nH]1)C(=O)O/C2=C1\C(=O)Nc2ccccc21" >= 5?
-1

----------
# Assay: Inhibition of yeast alpha-glucosidase using 4-nitrophenyl-alpha-D-glucopyranoside as substrate incubated for 15 mins by spectrophotometric method
# Design: species or system Saccharomyces cerevisiae
The label Condition met is reserved for IC50 strictly under 10 µM; Condition not met covers values equal to or above it.

Compound	Answer label
C[C@H]1O[C@H](O[C@H]2[C@H](O)[C@@H](O)[C@@H](O[C@H]3[C@H](O)[C@@H](O)C(O)O[C@@H]3CO)O[C@@H]2CO)[C@H](O)[C@@H](O)[C@@H]1N[C@H]1C=C(CO)[C@@H](O)[C@H](O)[C@H]1O (some centres not stated)	Condition met
Cc1cc2c(c(=O)[nH]1)C(=O)OC2C1(O)C(=O)N(C)c2ccccc21 (configuration not stated)	Condition not met
Cc1cc(C(=O)C2C(=O)N(Cc3ccccc3)c3ccc(Br)cc32)c(C(=O)N2CCCCC2)c(=O)[nH]1 (configuration not stated)	Condition met

I'd appreciate it if you could check whether Cc1cc(C(=O)C2C(=O)N(Cc3ccccc3)c3ccccc32)c(C(=O)N2CCCCC2)c(=O)[nH]1 (configuration not stated) has IC50 smaller than 10 µM.
Condition met

I'd appreciate it if you could check whether Cc1cc2c(c(=O)[nH]1)C(=O)OC2C1(O)C(=O)N(Cc2ccccc2)c2ccc(Br)cc21 (configuration not stated) has IC50 smaller than 10 µM.
Condition not met

I'd appreciate it if you could check whether "Cc1cc(/C(O)=C2/C(=O)Nc3ccc(Br)cc32)c(C(=O)N2CCCCC2)c(=O)[nH]1" has IC50 smaller than 10 µM.
Condition met

----------
# Assay: Inhibition of yeast alpha-glucosidase using nitrophenol-D-glucopyranoside as substrate incubated for 15 mins
# Design: species or system Saccharomyces cerevisiae
Assay readout: pIC50
Worth noting: pIC50 values are minus log10 of concentrations stated in mol/L.

So what's the measured pIC50 for this one? "Cc1cc2c(c(=O)[nH]1)C(=O)O/C2=C/c1cc(Br)cs1"
6.62
